Entry source: patent US20100136030A1

test-target: T1, human OX40 (form used in the assay not stated) (human, UniProt P43489 29-214, limits assumed)
T1 sequence (looked up): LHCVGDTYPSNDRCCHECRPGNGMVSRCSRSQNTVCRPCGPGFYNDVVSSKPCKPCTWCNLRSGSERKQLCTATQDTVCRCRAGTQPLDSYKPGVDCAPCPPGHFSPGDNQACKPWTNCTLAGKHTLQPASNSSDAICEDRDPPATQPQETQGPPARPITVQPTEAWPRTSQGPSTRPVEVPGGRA
test-protocol: Biacore, format not described
outcome-measure: Kd (nM)

[[record]]
binder = "humanized A10 whole antibody A (A10 LC (SH) / A10 L70) (antibody, V domains shown) VH: QVQLVQSGAEVKKPGASVKVSCKASGYTFTSYWMHWVRQAPGQGLEWMGEIHPKSGNSNYNEKFKGRVTLTRDTSTSTVYMELSSLRSEDTAVYYCARGPEYSNFWFAYWGQGTLVTVSS VL: DIVMTQSPDSLAVSLGERATINCKASQSVDYDGDSYMHWYQQKPGQPPKLLIYAASNLESGVPDRFSGSGSGTDFTLTISSLQAEDVAVYYCHQSNEDPWTFGQGTKVEIK"
outcome_measure = "Kd"
number = 1.38

[[record]]
binder = "humanized A10 whole antibody B (A10 LC (SN) / A10 L70) (antibody, V domains shown) VH: QVQLVQSGAEVKKPGASVKVSCKASGYTFTSYWMHWVRQAPGQGLEWMGEIHPKSGNSNYNEKFKGRVTLTRDTSTSTVYMELSSLRSEDTAVYYCARGPEYSNFWFAYWGQGTLVTVSS VL: DIVMTQSPDSLAVSLGERATINCKASQSVDYDGDSYMNWYQQKPGQPPKLLIYAASNLESGVPDRFSGSGSGTDFTLTISSLQAEDVAVYYCHQSNEDPWTFGQGTKVEIK"
outcome_measure = "Kd"
number = 0.94

[[record]]
binder = "humanized A10 whole antibody D (A10 LC (SH) / A10 humanized) (antibody, V domains shown, also called A10-D; A10 D) VH: QVQLVQSGAEVKKPGASVKVSCKASGYTFTSYWMHWVRQAPGQGLEWMGEIHPKSGNSNYNEKFKGRVTMTRDTSTSTVYMELSSLRSEDTAVYYCARGPEYSNFWFAYWGQGTLVTVSS VL: DIVMTQSPDSLAVSLGERATINCKASQSVDYDGDSYMHWYQQKPGQPPKLLIYAASNLESGVPDRFSGSGSGTDFTLTISSLQAEDVAVYYCHQSNEDPWTFGQGTKVEIK"
outcome_measure = "Kd"
number = 1.21

